Where these numbers come from: patent US9598463B2

Reported solubility values for the following molecules.
# assay_procedure: Qualitative solubility of test peptides in 0.5 N saline
# Assay type: physicochemical
# condition_info: pH 6.5, 20° C. (table title)
Where a SMILES comes first, the peptide text is derived from it.

INSERT INTO results (molecule, observed_result) VALUES
  ('CC(=O)N[C@@H](C)C(=O)N[C@@H](CCCCN)C(=O)NCC(=O)N[C@@H](CCC(=O)O)C(N)=O [Ac-peptide 219-NH2] (Ac-AKGE-NH2)', '> 200 mg/mL');

Summary for this molecule, C[C@@H]1NC(=O)CNC(=O)[C@H](CCCCN)NC(=O)[C@H](C)NC(=O)[C@H](C)NC(=O)[C@H]([C@@H](C)O)NC(=O)[C@H](CCCCN)NC(=O)[C@H](CO)NC(=O)[C@H](Cc2ccccc2)NC(=O)[C@H](CCC(N)=O)NC1=O [cyclic-peptide 106] (cyclo(GAQFSKTAAK)) : solubility is > 150 mg/mL
